- Test system: rodent lifetime carcinogenesis bioassay, tumor incidence TD50
- assay_details: carcinogenic potency in animals, long-term in vivo studies, CPDB compilation (AID 1745844)
- measurement_setup: mouse; strain B6C3F1; males; inhaled; site: all sites; lesion: malignant lymphoma, mixed type + malignant lymphoma; dosed 52 weeks; study length 104 weeks
measure: TD50 (mg/kg/day)
# value in mg/kg/day; strip the unit string

Prompt: Need TD50, item "C=CC=C"
Completion: 76.2

====

- Test system: rodent lifetime carcinogenesis bioassay, tumor incidence TD50
- assay_details: carcinogenic potency in animals, long-term in vivo studies, CPDB compilation (AID 1745844)
- measurement_setup: rat; strain Marshall; females; by gavage; site: kidney; lesion: tubular-cell adenocarcinoma; dosed 103 weeks; study length 104 weeks
measure: TD50 (mg/kg/day)
Expressed in mg/kg/day, but write only the number.

Prompt: Need TD50 of "ClC=C(Cl)Cl" , thanks.
Completion: 4110

====

- Tested on: rodent lifetime carcinogenesis bioassay, tumor incidence TD50
- assay_details: carcinogenic potency in animals, long-term in vivo studies, CPDB compilation (AID 1745844)
- measurement_setup: rat; strain Fischer 344; males; in drinking water; site: esophagus; lesion: several types; types named in the paper; dosed 100 weeks; study length 115 weeks
measure: TD50

Prompt: // returns reported TD50 for input "O=NN1CCCCCCC1"
Completion: 0.0735 mg/kg/day

====

- System: rodent lifetime carcinogenesis bioassay, tumor incidence TD50
- assay_details: carcinogenic potency in animals, long-term in vivo studies, CPDB compilation (AID 1745844)
- measurement_setup: rat; strain Fischer 344; females; in feed; site: liver; lesion: hepatocellular adenoma + hepatoblastoma + hepatocellular carcinoma; dosed 105 weeks; study length 105 weeks
measure: TD50 (mg/kg/day)
The figure you give is taken to be in mg/kg/day; do not add the unit.

Prompt: Look up TD50: "Cc1ncc[nH]1"
Completion: 2000

====

- Test system: rodent lifetime carcinogenesis bioassay, tumor incidence TD50
- assay_details: carcinogenic potency in animals, long-term in vivo studies, CPDB compilation (AID 1745844)
- measurement_setup: rat; strain Sprague-Dawley; females; inhaled; site: liver; lesion: several types; types named in the paper; dosed 104 weeks; study length 150 weeks
measure: TD50 (mg/kg/day)
The reply should contain only the number, in mg/kg/day.

Prompt: What TD50 value was documented for this compound, "C=C(Cl)Cl" ?
Completion: 847

====

- System: rodent lifetime carcinogenesis bioassay, tumor incidence TD50
- assay_details: carcinogenic potency in animals, long-term in vivo studies, CPDB compilation (AID 1745844)
- measurement_setup: rat; strain Charles River CD (Sprague-Dawley); males; in feed; site: brain; lesion: several types; types named in the paper; dosed 104 weeks; study length 104 weeks
Activity calls are given as the source filed them. No rule for the calls is given here. Peptide text beside a SMILES is read from it.
measure: TD50

Prompt: Need TD50, item COC(=O)[C@H](Cc1ccccc1)NC(=O)[C@@H](N)CC(=O)O (H-Asp-Phe-OMe)
Completion: 666000 mg/kg/day (inactive)

====

- Tested on: rodent lifetime carcinogenesis bioassay, tumor incidence TD50
- assay_details: carcinogenic potency in animals, long-term in vivo studies, CPDB compilation (AID 1745844)
- measurement_setup: mouse; strain B6C3F1; females; by gavage; site: forestomach; lesion: squamous-cell papilloma; dosed 88 weeks; study length 104 weeks
measure: TD50

Prompt: Endpoint output: TD50 of "ClCC(Cl)CCl" . Value?
Completion: 1.64 mg/kg/day
